target: human mGluR7 (Homo sapiens (Human)); assay: Inositol monophosphate production assay (IP1 assay), inhibition of L-AP4 response; format: cell-based; conditions: mean IC50 from at least two independent experiments; HEK293 cells transiently transfected with mGluR7, Gqtop and EAAC1; IP1 production vs EC80 L-AP4
Sequence (Q14831 35-915): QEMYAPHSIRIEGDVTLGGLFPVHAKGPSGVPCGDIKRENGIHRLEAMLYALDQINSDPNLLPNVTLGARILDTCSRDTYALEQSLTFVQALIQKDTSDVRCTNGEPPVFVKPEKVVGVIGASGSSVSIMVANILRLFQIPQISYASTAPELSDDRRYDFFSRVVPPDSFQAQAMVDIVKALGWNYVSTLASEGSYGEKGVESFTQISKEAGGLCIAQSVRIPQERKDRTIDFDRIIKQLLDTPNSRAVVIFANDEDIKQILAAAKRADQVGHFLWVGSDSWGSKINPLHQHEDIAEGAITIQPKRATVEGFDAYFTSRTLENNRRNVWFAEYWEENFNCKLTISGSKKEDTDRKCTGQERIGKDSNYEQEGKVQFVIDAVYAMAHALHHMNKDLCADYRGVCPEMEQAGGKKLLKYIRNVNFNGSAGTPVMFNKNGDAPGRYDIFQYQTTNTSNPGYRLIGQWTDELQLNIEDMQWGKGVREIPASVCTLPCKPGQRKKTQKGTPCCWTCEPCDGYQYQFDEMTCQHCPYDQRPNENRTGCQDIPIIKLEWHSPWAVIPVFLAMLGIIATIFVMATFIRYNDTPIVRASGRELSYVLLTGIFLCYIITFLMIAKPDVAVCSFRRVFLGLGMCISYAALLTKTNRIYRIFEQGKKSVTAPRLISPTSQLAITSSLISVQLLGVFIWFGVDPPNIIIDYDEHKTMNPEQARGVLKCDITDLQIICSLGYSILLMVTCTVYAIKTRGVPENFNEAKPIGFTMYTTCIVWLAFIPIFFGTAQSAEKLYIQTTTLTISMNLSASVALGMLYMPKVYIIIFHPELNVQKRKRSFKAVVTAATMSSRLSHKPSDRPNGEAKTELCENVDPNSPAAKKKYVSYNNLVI
Documented IC50 across a set of compounds

COMPOUND: COc1cc(C2CCc3c(cnn(-c4ccccn4)c3=O)C2)ccc1C (stereo not drawn)
TARGET ENTITY: human mGluR7 (Homo sapiens (Human))
IC50: 1000 to 30000 nM
//
COMPOUND: Cc1ccc(C2CCc3c(cnn(-c4nccc(C5CC5)n4)c3=O)C2)c(C)c1 (stereo not drawn)
TARGET ENTITY: human mGluR7 (Homo sapiens (Human))
IC50: < 500 nM
//
COMPOUND: Cc1ccc(C2CCc3c(cnn(-c4ncccn4)c3=O)C2)c(C)c1 (stereo not drawn)
TARGET ENTITY: human mGluR7 (Homo sapiens (Human))
IC50: < 500 nM
//
COMPOUND: CN1CCc2c(C3CCc4c(cnn(-c5ncccn5)c4=O)C3)cccc21 (stereo not drawn)
TARGET ENTITY: human mGluR7 (Homo sapiens (Human))
IC50: < 500 nM
//
COMPOUND: COCCOc1cccc(C2CCc3c(cnn(-c4ncccn4)c3=O)C2)c1C (stereo not drawn)
TARGET ENTITY: human mGluR7 (Homo sapiens (Human))
IC50: 1000 to 30000 nM
//
COMPOUND: Cc1ccc(C2CCc3c(cnn(-c4cnccn4)c3=O)C2)c(C)c1 (stereo not drawn)
TARGET ENTITY: human mGluR7 (Homo sapiens (Human))
IC50: < 500 nM
//
COMPOUND: Cc1ccc(C2CCc3c(cnn(-c4ncc(F)cn4)c3=O)C2)c(C)c1 (stereo not drawn)
TARGET ENTITY: human mGluR7 (Homo sapiens (Human))
IC50: < 500 nM
//
COMPOUND: O=c1c2c(cnn1-c1ncccn1)CC(c1cccc3c1CCN3C1CC1)CC2 (stereo not drawn)
TARGET ENTITY: human mGluR7 (Homo sapiens (Human))
IC50: < 500 nM
//
COMPOUND: Cc1ccc(C2CCc3c(cnn(-c4cscn4)c3=O)C2)c(C)c1 (stereo not drawn)
TARGET ENTITY: human mGluR7 (Homo sapiens (Human))
IC50: < 500 nM
